Tested on: LEGO organoid PT (PTEN-/-; TP53-/-)
experiment: bioluminescence (viable cell) signal fold change after vs before treatment, normalised to DMSO (ratio); higher = more tumour cell growth / less inhibition
measurement.setup: 10 µM; treatment time 6 days
For each record, write down the corresponding bioluminescence.
Just the number, please, no unit attached.

Quick one: bioluminescence of CO[C@H]1/C=C/O[C@@]2(C)Oc3c(C)c(O)c4c(O)c(c(/C=N/N5CCN(C6CCCC6)CC5)c(O)c4c3C2=O)NC(=O)/C(C)=C\C=C\[C@H](C)[C@H](O)[C@@H](C)[C@@H](O)[C@@H](C)[C@H](OC(C)=O)[C@@H]1C [Rifapentine] ? 3.28

Return reported bioluminescence; argument: CCC1=C[C@@H]2CN(C1)Cc1c([nH]c3ccccc13)[C@@](C(=O)OC)(c1cc3c(cc1OC)N(C)[C@H]1[C@@](O)(C(=O)OC)[C@H](OC(C)=O)[C@]4(CC)C=CCN5CC[C@]31[C@@H]54)C2.O=C(O)[C@H](O)[C@@H](O)C(=O)O.O=C(O)[C@H](O)[C@@H](O)C(=O)O [Vinorelbine Tartrate] 1.03

Consider the compound shown here: C[N+](C)(C)CCO.[Cl-] [Choline chloride] What is its recorded bioluminescence? 1.48

I am curious: what bioluminescence value has been reported for C=CC(=O)Nc1cc(Nc2nccc(-c3cn(C)c4ccccc34)n2)c(OC)cc1N(C)CCN(C)C [Osimertinib] ? 0.644

Would you kindly share the measured bioluminescence for CN(C)CC(c1ccc(O)cc1)C1(O)CCCCC1 (stereo not drawn) [Desvenlafaxine] ? 1.01

Param item = CNS(=O)(=O)Cc1ccc2[nH]cc(CCN(C)C)c2c1.O=C(O)CCC(=O)O [Sumatriptan succinate] ; retrieve measured bioluminescence. 1.23

Consider the compound CN(C)C(=N)NC(=N)N [Metformin] and give its measured bioluminescence. 0.733

Could you tell me which bioluminescence is on file for CS(=O)(=O)c1ccc(C(=O)Nc2ccc(Cl)c(-c3ccccn3)c2)c(Cl)c1 [Vismodegib] ? 0.63

Return reported bioluminescence; argument: C[C@@H]1O[C@]2(CS1)CN1CCC2CC1.C[C@@H]1O[C@]2(CS1)CN1CCC2CC1.Cl.Cl.O [Cevimeline hydrochloride hemihydrate] 0.884

Give the measured bioluminescence of C[C@@H]1C[C@H]2[C@@H]3CCC4=CC(=O)C=C[C@]4(C)[C@@]3(F)[C@@H](O)C[C@]2(C)[C@@]1(O)C(=O)CO [Dexamethasone] . 0.763

Item CC(=O)[C@H]1CC[C@H]2[C@@H]3CCC4=CC(=O)CC[C@]4(C)[C@H]3CC[C@]12C [Progesterone] has what recorded bioluminescence? 0.82

Which measured bioluminescence value corresponds to Cc1oncc1C(=O)Nc1ccc(C(F)(F)F)cc1 [Leflunomide] ? 2.01

# bioluminescence lookup, item CN[C@H](CC(C)C)C(=O)N[C@H]1C(=O)N[C@@H](CC(N)=O)C(=O)N[C@H]2C(=O)N[C@H]3C(=O)N[C@H](C(=O)N[C@H](C(=O)O)c4cc(O)cc(O)c4-c4cc3ccc4O)[C@H](O)c3ccc(c(Cl)c3)Oc3cc2cc(c3O[C@@H]2O[C@H](CO)[C@@H](O)[C@H](O)[C@H]2O[C@H]2C[C@](C)(N)[C@H](O)[C@H](C)O2)Oc2ccc(cc2Cl)[C@H]1O [Vancomycin] 1.48

So what does the record say about bioluminescence for Cc1cn(-c2cc(NC(=O)c3ccc(C)c(Nc4nccc(-c5cccnc5)n4)c3)cc(C(F)(F)F)c2)cn1 [Nilotinib] ? 2.55

Any idea what its bioluminescence is? The compound is NC(=O)N1c2ccccc2CC(=O)c2ccccc21 [Oxcarbazepine] 0.572

Give the measured bioluminescence of CCc1cc(C(N)=S)ccn1 [Ethinamide] . 2.05

# input compound: CC(C)c1nc(CN(C)C(=O)N[C@H](C(=O)N[C@@H](Cc2ccccc2)C[C@H](O)[C@H](Cc2ccccc2)NC(=O)OCc2cncs2)C(C)C)cs1 [Ritonavir] ; wanted: its bioluminescence 1.3

bioluminescence for CC1(C)S[C@@H]2[C@H](NC(=O)[C@H](N)c3ccc(O)cc3)C(=O)N2[C@H]1C(=O)O.O.O.O [Amoxicillin trihydrate] ? 1.03

# lookup: bioluminescence of NC(CO)(CO)CO.O=C(c1ccccc1)c1ccc2n1CCC2C(=O)O (stereo not drawn) [Ketorolac tromethamine salt] 1.75

Please report the recorded bioluminescence for CCc1nc(N)nc(N)c1-c1ccc(Cl)cc1 [Pyrimethamine] . 0.65

I am curious: what bioluminescence value has been reported for Nc1nc2ccc(OC(F)(F)F)cc2s1 [Riluzole] ? 0.939

May I ask what bioluminescence has been recorded for Cc1cc(C)nc(NS(=O)(=O)c2ccc(N)cc2)n1 [Sulfamethazine] ? 0.814

Please report the recorded bioluminescence for O=C(CCCN1CC=C(n2c(=O)[nH]c3ccccc32)CC1)c1ccc(F)cc1 [Droperidol] . 1.37

What measured bioluminescence goes with CC(=O)Oc1ccccc1C(=O)O [Aspirin] ? 0.997

For Cl.CNCC\C=C1\c2ccccc2CCc2ccccc12 [Nortriptyline hydrochloride] , what is its reported bioluminescence? 0.795

Value lookup for bioluminescence; key = CCCCN1CCCCC1C(=O)Nc1c(C)cccc1C.Cl (stereo not drawn) [Bupivacaine hydrochloride] 1.37

Which bioluminescence value is on record for CC(C)Cc1ccc(C(C)C(=O)O)cc1 (stereo not drawn) [Ibuprofen] ? 1.56

I have this compound here, COc1cc2c(cc1OC)C(=O)C(CC1CCN(Cc3ccccc3)CC1)C2.Cl (stereo not drawn) [Donepezil HCl] , and I need its recorded bioluminescence. 0.543
